system under test: SARS-CoV-2 spike receptor-binding domain (RBD) (SARS-CoV-2, UniProt P0DTC2 319-541)
measure name: Kd (nM)

binder: AB-009221 (antibody, V domains shown) VH: EVQLVESGGGLVQPGGSLRLSCAASGFTVSSNYMSWVRQAPGKGLEWVSVIYSGGSTYYADSVKGRFTISRHNSKNTLYLQMNSLRAEDTAVYYCARDRNAFDIWGQGTMVIVSS VL: DIQMTQSPSSLSASVGDRVSITCQASQDISNDLNWYQQKPGKAPKLLVYDASKLETGVPPRFSGSGSGTDFTFTISSLQPEDIATYYCQQYDNLPLYSFGQGTKLEIK
unit string: nM
observed result: 26.4
